assay-details: CNS side effects in rhesus monkeys
experimental-parameters: rhesus monkey, in vivo, po, read-out: NOAEL for decreased spatial working memory performance and CNS side effects (oral movements)
parameter-measured: NOAEL (mg/kg)
Write it as a number; the unit mg/kg goes unstated.

### Prompt Param item = c1cnc2c(c1)C[C@@]1(CN3CCC1CC3)O2 ; retrieve measured NOAEL.
### Response 0.016

----------
assay-details: Single oral dose pharmacokinetics in healthy human volunteers
Assay type: in vivo
experimental-parameters: human, plasma; single oral dose 0.68 mg, geometric mean
parameter-measured: half-life (h)
Write it as a number; the unit h goes unstated.

### Prompt Param item = c1cnc2c(c1)C[C@@]1(CN3CCC1CC3)O2 ; retrieve measured half-life.
### Response 6

----------
assay-details: Single dose PK/TK, rabbit
experimental-parameters: female, New Zealand White, in vivo, sc; rabbit 3F, DMB10, single subcutaneous 2.16 mg/kg (10 μmol/kg); read-out: T½ (converted)
parameter-measured: half-life (h)
Write it as a number; the unit h goes unstated.

### Prompt Param item = c1cnc2c(c1)C[C@@]1(CN3CCC1CC3)O2 ; retrieve measured half-life.
### Response 2.71

----------
assay-details: Multiple dose PK/TK, dog
Assay type: in vivo
experimental-parameters: female, Beagle, dog, in vivo, po, 34.6 mg/kg, dog 6F, 0295AD, 34.6 mg/kg (160 μmol/kg) split in two 6 h apart, capsules fed, day 7
parameter-measured: AUC

### Prompt Param item = c1cnc2c(c1)C[C@@]1(CN3CCC1CC3)O2 ; retrieve measured AUC.
### Response 19.2 µM·h

----------
assay-details: Single oral dose pharmacokinetics in healthy human volunteers
Format: in vivo
experimental-parameters: human, plasma; single oral dose 0.68 mg, median
Description: Total oral doses of AZD0328 in the range 0.025-0.68 mg produced mean plasma concentrations of 0.6-15 nM, consistent with the range of plasma concentrations found to be associated with improved performance in the spatial delayed response test in monkeys. Total oral doses of AZD0328 in the range 0.005-2 mg produced mean plasma concentrations of 0.17-43.9 nM, within the range of plasma concentrations found to be associated with improved performance in rodent models.
parameter-measured: Tmax (h)
Write it as a number; the unit h goes unstated.

### Prompt Param item = c1cnc2c(c1)C[C@@]1(CN3CCC1CC3)O2 ; retrieve measured Tmax.
### Response 2.2

----------
assay-details: Single dose PK/TK, rat
Type: in vivo
experimental-parameters: male, in vivo; rat 4M, 20030191PCR, single oral 54.1 mg/kg (250 μmol/kg)
Excerpt: This section provides a summary of the pharmacokinetic and metabolism properties of AZD0328 derived from in vivo studies. […] The derived PK/TK parameters from these studies are presented in Table 4 for single dose studies (DMR4, 0619LR, 20030191PCR, DMO16, DMB10, DMW12, 50190, 0190DD and 03.330/1), and are presented in Table 5 multiple dose PK/TK studies (DMR4, 0612AR, DMB15, 50190, 0190DD and 0295AD).
parameter-measured: Tmax (h)
Write it as a number; the unit h goes unstated.

### Prompt Param item = c1cnc2c(c1)C[C@@]1(CN3CCC1CC3)O2 ; retrieve measured Tmax.
### Response 1

----------
assay-details: Multiple dose PK/TK, dog
Type: in vivo
experimental-parameters: female, Beagle, dog, in vivo, po, 34.6 mg/kg, dog 6F, 0295AD, 34.6 mg/kg (160 μmol/kg) split in two 6 h apart, capsules fed, day 7
parameter-measured: Tmax at 7 day

### Prompt Param item = c1cnc2c(c1)C[C@@]1(CN3CCC1CC3)O2 [AZD0328] ; retrieve measured Tmax at 7 day.
### Response 0.5 to 6.5 h

----------
experimental-target: hERG-encoded potassium channel (Homo sapiens, UniProt Q12809)
Sequence (Q12809 whole entry): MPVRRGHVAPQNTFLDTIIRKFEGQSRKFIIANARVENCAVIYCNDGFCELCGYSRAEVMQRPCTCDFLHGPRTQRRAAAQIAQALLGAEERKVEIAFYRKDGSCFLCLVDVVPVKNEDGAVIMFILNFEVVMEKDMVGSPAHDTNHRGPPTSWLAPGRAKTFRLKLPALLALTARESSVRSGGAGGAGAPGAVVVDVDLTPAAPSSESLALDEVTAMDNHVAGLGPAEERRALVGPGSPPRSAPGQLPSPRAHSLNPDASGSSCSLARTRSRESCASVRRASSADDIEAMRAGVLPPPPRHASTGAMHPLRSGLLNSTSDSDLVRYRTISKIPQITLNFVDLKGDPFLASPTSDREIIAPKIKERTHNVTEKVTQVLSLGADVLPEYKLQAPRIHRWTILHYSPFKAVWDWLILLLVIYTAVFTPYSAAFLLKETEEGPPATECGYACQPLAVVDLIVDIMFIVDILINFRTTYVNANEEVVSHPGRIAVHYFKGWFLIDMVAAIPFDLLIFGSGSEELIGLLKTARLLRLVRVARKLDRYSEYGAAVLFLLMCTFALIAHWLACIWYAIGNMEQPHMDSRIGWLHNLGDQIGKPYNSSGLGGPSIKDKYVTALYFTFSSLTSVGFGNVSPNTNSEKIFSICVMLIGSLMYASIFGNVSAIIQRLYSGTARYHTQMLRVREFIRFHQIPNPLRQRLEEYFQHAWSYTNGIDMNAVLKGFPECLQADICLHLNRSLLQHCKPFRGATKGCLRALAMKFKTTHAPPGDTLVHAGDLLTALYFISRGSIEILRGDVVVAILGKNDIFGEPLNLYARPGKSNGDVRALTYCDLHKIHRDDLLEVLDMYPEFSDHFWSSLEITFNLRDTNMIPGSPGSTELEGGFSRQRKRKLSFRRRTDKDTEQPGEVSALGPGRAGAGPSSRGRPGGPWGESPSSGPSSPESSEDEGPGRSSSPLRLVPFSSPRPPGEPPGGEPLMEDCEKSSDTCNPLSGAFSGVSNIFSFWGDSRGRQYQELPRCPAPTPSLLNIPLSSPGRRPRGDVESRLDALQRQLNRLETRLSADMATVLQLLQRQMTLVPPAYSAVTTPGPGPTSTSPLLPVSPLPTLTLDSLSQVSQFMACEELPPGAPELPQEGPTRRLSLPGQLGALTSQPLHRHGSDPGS
assay-details: hERG patch clamp
experimental-parameters: HEK cells, read-out: IC50, block of hERG tail current (estimated)
parameter-measured: IC50 (µM)
Write it as a number; the unit µM goes unstated.

### Prompt Param item = c1cnc2c(c1)C[C@@]1(CN3CCC1CC3)O2 [AZD0328] ; retrieve measured IC50.
### Response 32

----------
assay-details: Multiple dose PK/TK, rat
Assay type: in vivo
experimental-parameters: female, rat, in vivo, po, 64.9 mg/kg, rat 4F, 0612AR, 64.9 mg/kg (300 μmol/kg), day 30
parameter-measured: Tmax (h)
Write it as a number; the unit h goes unstated.

### Prompt Param item = c1cnc2c(c1)C[C@@]1(CN3CCC1CC3)O2 ; retrieve measured Tmax.
### Response 1

----------
assay-details: Multiple dose PK/TK, dog
Format: in vivo
experimental-parameters: male, Beagle, dog, in vivo, po, 8.65 mg/kg, dog 3M, 0295AD, 8.65 mg/kg (40 μmol/kg) split in two 6 h apart, capsules fed, day 35
parameter-measured: Tmax at 35 day

### Prompt Param item = c1cnc2c(c1)C[C@@]1(CN3CCC1CC3)O2 [AZD0328] ; retrieve measured Tmax at 35 day.
### Response 8.5 to 9 h

----------
assay-details: Multiple dose PK/TK, dog
Format: in vivo
experimental-parameters: male, Beagle, dog, in vivo, po, 17.3 mg/kg, dog 3M, 0295AD, 17.3 mg/kg (80 μmol/kg) split in two 6 h apart, capsules fed, day 35
Description: This section provides a summary of the pharmacokinetic and metabolism properties of AZD0328 derived from in vivo studies. […] The derived PK/TK parameters from these studies are presented in Table 4 for single dose studies (DMR4, 0619LR, 20030191PCR, DMO16, DMB10, DMW12, 50190, 0190DD and 03.330/1), and are presented in Table 5 multiple dose PK/TK studies (DMR4, 0612AR, DMB15, 50190, 0190DD and 0295AD).
parameter-measured: Tmax at 35 day

### Prompt Param item = c1cnc2c(c1)C[C@@]1(CN3CCC1CC3)O2 ; retrieve measured Tmax at 35 day.
### Response 1 to 9 h

----------
assay-details: Single oral dose pharmacokinetics in healthy human volunteers
Type: in vivo
experimental-parameters: human, plasma; single oral dose 0.075 mg, geometric mean
Procedure: Total oral doses of AZD0328 in the range 0.025-0.68 mg produced mean plasma concentrations of 0.6-15 nM, consistent with the range of plasma concentrations found to be associated with improved performance in the spatial delayed response test in monkeys. Total oral doses of AZD0328 in the range 0.005-2 mg produced mean plasma concentrations of 0.17-43.9 nM, within the range of plasma concentrations found to be associated with improved performance in rodent models.
parameter-measured: AUC(0-t) (µM·h)
Write it as a number; the unit µM·h goes unstated.

### Prompt Param item = c1cnc2c(c1)C[C@@]1(CN3CCC1CC3)O2 ; retrieve measured AUC(0-t).
### Response 0.0156

----------
assay-details: Single dose PK/TK, rhesus monkey
Assay type: in vivo
experimental-parameters: both sexes, plasma; rhesus monkey 2M+2F, 03.330/1, iv 0.385 mg/kg (1.78 μmol/kg)
Method: Pharmacokinetic studies in rats and monkeys were used to estimate the plasma concentrations associated with doses at which AZD0328 improved cognitive performance in these species. For example, in rhesus monkeys, two studies were conducted to determine the pharmacokinetic profile of AZD0328 after administration of 0.048 and 1.7 mg per kg AZD0328. […] We thus estimated the peak plasma concentrations in monkeys that received AZD0328 at 0.00048-0.016 mg per kg to be 0.6-18 nM. […]
parameter-measured: clearance (mL/min/kg)
Write it as a number; the unit mL/min/kg goes unstated.

### Prompt Param item = c1cnc2c(c1)C[C@@]1(CN3CCC1CC3)O2 ; retrieve measured clearance.
### Response 21

----------
assay-details: Single oral dose pharmacokinetics in healthy human volunteers
Format: in vivo
experimental-parameters: human, plasma; single oral dose 0.075 mg, geometric mean
parameter-measured: AUC (µM·h)
Write it as a number; the unit µM·h goes unstated.

### Prompt Param item = c1cnc2c(c1)C[C@@]1(CN3CCC1CC3)O2 ; retrieve measured AUC.
### Response 0.0169

----------
assay-details: Multiple dose PK/TK, dog
Format: in vivo
experimental-parameters: female, Beagle, dog, in vivo, po, 34.6 mg/kg, dog 6F, 0295AD, 34.6 mg/kg (160 μmol/kg) split in two 6 h apart, capsules fed, day 7
Description: This section provides a summary of the pharmacokinetic and metabolism properties of AZD0328 derived from in vivo studies. […] The derived PK/TK parameters from these studies are presented in Table 4 for single dose studies (DMR4, 0619LR, 20030191PCR, DMO16, DMB10, DMW12, 50190, 0190DD and 03.330/1), and are presented in Table 5 multiple dose PK/TK studies (DMR4, 0612AR, DMB15, 50190, 0190DD and 0295AD).
parameter-measured: AUC at 7 day (ng·h/mL)
Write it as a number; the unit ng·h/mL goes unstated.

### Prompt Param item = c1cnc2c(c1)C[C@@]1(CN3CCC1CC3)O2 [AZD0328] ; retrieve measured AUC at 7 day.
### Response 4160
